- measured target: 5-hydroxytryptamine receptor 1A (Homo sapiens) (UniProt P08908)
- Sequence (P08908 whole entry): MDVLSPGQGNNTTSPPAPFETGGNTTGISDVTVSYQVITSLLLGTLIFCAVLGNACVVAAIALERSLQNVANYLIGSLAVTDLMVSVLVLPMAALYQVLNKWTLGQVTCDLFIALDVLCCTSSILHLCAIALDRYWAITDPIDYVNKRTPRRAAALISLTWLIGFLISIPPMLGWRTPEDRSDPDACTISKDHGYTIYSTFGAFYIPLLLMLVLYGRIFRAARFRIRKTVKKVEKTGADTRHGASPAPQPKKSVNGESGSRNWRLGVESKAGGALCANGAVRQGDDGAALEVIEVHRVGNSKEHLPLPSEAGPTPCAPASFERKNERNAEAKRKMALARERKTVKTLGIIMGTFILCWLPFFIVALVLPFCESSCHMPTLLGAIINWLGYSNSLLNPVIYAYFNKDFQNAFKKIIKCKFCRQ
- assay procedure: Antagonist activity against human 5-HT1A receptor expressed in HEK293 cells assessed as inhibition of […]-induced cAMP levels at 0.1 uM
- Format: functional, cell-based
Examples of compounds with documented inhibition follow.
Provide the reading as a plain figure in %.

Answered examples (4):
# compound structure string, units label, result
measured = [
    ("Cn1c(=O)c2c(nc3n(CCCCCN4CCN(c5ccccc5O)CC4)c(-c4ccccc4)cn23)n(C)c1=O", "%", 68.3),
    ("Cc1cccc(N2CCN(CCCCn3c(C)cn4c5c(=O)n(C)c(=O)n(C)c5nc34)CC2)c1C", "%", 102),
    ("Cn1c(=O)c2c(nc3n(CCCCCN4CCN(c5ccc(Cl)cc5)CC4)c(-c4ccccc4)cn23)n(C)c1=O", "%", 71.8),
    ("Cc1cn2c3c(=O)n(C)c(=O)n(C)c3nc2n1CCCCCN1CCN(c2ccc(Cl)c(Cl)c2)CC1", "%", 92.9),
]

Moving on to another compound below.
For the compound Cn1c(=O)c2c(nc3n(CCCCN4CCN(c5ccccc5O)CC4)c(-c4ccccc4)cn23)n(C)c1=O , what inhibition is on record?
82.4
